# TESTED SYSTEM: WDR5 (Homo sapiens, UniProt P61964)
# PROTOCOL DESCRIPTION: Surface Plasmon Resonance (SPR) assay
# Assay type: binding
# Set-up: Full length WDR5 with an N-terminal His tag and C-terminal AviTag; His tag (N); made in house; host or cells: E. coli
# CONDITION INFO: read-out: SPR Kd
PROPERTY MEASURED: Kd (nM)

// worked examples, Kd included
q: Returns the measured Kd for the input compound. Input: C[C@@H]1CN(c2cc(F)c(C3=CCCN(c4ncc(C#N)s4)C3)c(F)c2NC(=O)c2c[nH]c(=O)cc2C(F)(F)F)C[C@H](C)N1C [Example 149]
a: 1.8

q: Returns the measured Kd for the input compound. Input: C[C@H]1CN(c2cc(F)c(C3=CCN(c4ncc(F)cn4)CC3)c(F)c2NC(=O)c2c[nH]c(=O)cc2C(F)F)CCN1C [Example 81]
a: 1.37

q: Returns the measured Kd for the input compound. Input: C[C@H]1CN(c2cc(F)c(C3=CCN(C(=O)OC4(C)CCC4)CC3)c(F)c2NC(=O)c2c[nH]c(=O)cc2C(F)(F)F)CCN1C [Example 93]
a: 2.15

q: Returns the measured Kd for the input compound. Input: C[C@@H]1CN(c2cc(F)c(-c3cc(C(N)=O)c(F)cc3F)c(F)c2NC(=O)c2c[nH]c(=O)cc2C(F)(F)F)C[C@H](C)N1C [Example 30]
a: 23.6

[P] C[C@@H]1CN(c2cc(F)c(-c3cnc(N4CC5CCC(C4)O5)nc3)c(F)c2NC(=O)c2c[nH]c(=O)cc2C(F)F)C[C@H](C)N1C [Example 156]
[Q] C[C@@H]1CN(c2ncc(-c3c(F)cc(N4C[C@@H](C)N(C)[C@@H](C)C4)c(NC(=O)c4c[nH]c(=O)cc4C(F)F)c3F)cn2)C[C@H](C)O1 [Example 111]
[R] C[C@@H]1CN(c2ncc(-c3c(F)cc(N4C[C@@H](C)N(C)[C@@H](C)C4)c(NC(=O)c4c[nH]c(=O)cc4C(F)(F)F)c3F)cn2)C[C@@H](C)O1 [Example 86]
q: Task for the reader: rank each entry by its Kd, from the minimum upward. Could you list the labels in the order requested?
a: R, Q, P

----------
# System: MV4-11 cells
# PROTOCOL DESCRIPTION: Cell proliferation assay (ATPlite)
# Assay type: cell-based
# CONDITION INFO: Homo sapiens, 120 h; MV4-11 cells, five days; read-out: GI MV411 EC50
pEC50: −log10 of the molar value.
PROPERTY MEASURED: pEC50

q: Returns the measured pEC50 for the input compound. Input: C[C@H]1CN(c2cc(F)c(C3=CCCN(c4ccnc(C#N)n4)C3)c(F)c2NC(=O)c2c[nH]c(=O)cc2C(F)(F)F)CCN1C [Example 114]
a: 7.44

[a] C[C@@H]1CN(c2ncc(-c3c(F)cc(N4CCN(C)[C@@H](C)C4)c(NC(=O)c4cn(C)c(=O)cc4C(F)F)c3F)cn2)C[C@H](C)O1 [Example 161]
[b] C[C@@H]1CN(c2cc(F)c(C3=CCCN(c4ncc(F)cn4)C3)c(F)c2NC(=O)c2c[nH]c(=O)cc2C(F)(F)F)C[C@H](C)N1C [Example 146]
[c] C[C@@H]1CN(c2ncc(-c3c(F)cc(N4C[C@@H](C)N(C)[C@@H](C)C4)c(NC(=O)c4c[nH]c(=O)cc4C(F)F)c3F)cn2)CCO1 [Example 130]
[d] Cc1nc(C(=O)N2CCC=C(c3c(F)cc(N4C[C@@H](C)N(C)[C@@H](C)C4)c(NC(=O)c4c[nH]c(=O)cc4C(F)(F)F)c3F)C2)cs1 [Example 188]
q: Order the items by recorded pEC50; the first position goes to the largest value. Could you list the labels in the order requested?
a: c, a, b, d
(c: 7.99, a: 7.10, b: 6.62, d: 6.33)

[A] CC(C)[C@@H]1CN(c2nccc(-c3c(F)cc(N4CCN(C)[C@@H](C)C4)c(NC(=O)c4c[nH]c(=O)cc4C(F)F)c3F)n2)CCO1 [Example 124]
[B] C[C@@H]1CN(c2cc(F)c(C3=CCCN(c4ncc(C#N)s4)C3)c(F)c2NC(=O)c2c[nH]c(=O)cc2C(F)(F)F)C[C@H](C)N1C [Example 149]
q: Hey, between A and B which has a smaller measured pEC50? Selection: enter the item's label.
a: B
(B: 6.97, A: 7.25)

[1] C[C@@H]1CN(c2ncc(-c3c(F)cc(N4C[C@@H](C)N(C)[C@@H](C)C4)c(NC(=O)c4c[nH]c(=O)cc4C(F)F)c3F)cn2)C[C@H](C)O1 [Example 111]
[2] C[C@@H]1CN(c2ccc(-c3c(F)cc(N4C[C@@H](C)N(C)[C@@H](C)C4)c(NC(=O)c4c[nH]c(=O)cc4C(F)F)c3F)cn2)CCO1 [Example 190]
q: Hey, between 1 and 2 which has a smaller measured pEC50? Selection: enter the item's label.
a: 2
(2: 7.31, 1: 8.02)

[a] C[C@@H]1CN(c2cc(F)c(C3=CCN(C(=O)OC4CC(F)(F)C4)CC3)c(F)c2NC(=O)c2c[nH]c(=O)cc2C(F)(F)F)C[C@H](C)N1C [Example 135]
[b] CC(C)[C@@H]1CN(c2ncc(-c3c(F)cc(N4C[C@@H](C)N(C)[C@@H](C)C4)c(NC(=O)c4c[nH]c(=O)cc4C(F)F)c3F)cn2)CCO1 [Example 118]
q: Hey, between a and b which has a smaller measured pEC50? Selection: enter the item's label.
a: a
(a: 7.17, b: 7.91)

These data points were gathered from patent US20200385371A1.
